Values compiled from patent US20050282743A1.

Biological target: T1, GST-PTPL1 PDZ domain 2 (Homo sapiens (Human)), Q12923
T1 chain: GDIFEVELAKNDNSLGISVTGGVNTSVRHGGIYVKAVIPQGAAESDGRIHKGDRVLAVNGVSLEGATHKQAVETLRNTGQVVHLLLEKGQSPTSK
Assay: G' assay; further: key of the grades not given here
I'd appreciate it if you could supply Classification values for the items below.
Return type: number; implicit unit A450 class.

Value lookup for Classification; key = EDPKDRPSAAHIVEALETDV (modifications not checked) [PDZ-binding kinase (PBK)]
4

# lookup: Classification of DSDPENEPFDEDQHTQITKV (modifications not checked) [PTEN]
4

What measured Classification goes with PYQSQGFSTEEDEDEQVSAV (modifications not checked) [RA-GEF (ras/rap1A-assoc-GEF)] ?
4
